target: SARS-associated coronavirus protease 3CL^pro (Severe acute respiratory syndrome coronavirus)
// returns 0.0 unless Ki is strictly below 30 µM, in which case 1.0

                                smiles_repr  qualitative_label
0  O=C(OCCN(CCOC(=O)c1cc(B(O)O)cc([N+](=O)[O-])c1)CCOC(=O)c1cc(B(O)O)cc([N+](=O)[O-])c1)c1cc(B(O)O)cc([N+](=O)[O-])c1                0.0
1  O=C(OCc1cccc2ccccc12)c1cc(B(O)O)cc([N+](=O)[O-])c1                1.0
2  O=C(Oc1cccnc1Cl)c1cc(B(O)O)cc([N+](=O)[O-])c1                0.0

In the record for O=C(OCc1ccccc1COC(=O)c1cc(B(O)O)cc([N+](=O)[O-])c1)c1cc(B(O)O)cc([N+](=O)[O-])c1 , is Ki less than 30 µM?
1.0

Moving on to the next molecule: O=C(Oc1c(F)cccc1F)c1cc(B(O)O)cc([N+](=O)[O-])c1
0.0

Now consider CC(C)(C)c1cc(OC(=O)c2cc(B(O)O)cc([N+](=O)[O-])c2)ccc1OC(=O)c1cc(B(O)O)cc([N+](=O)[O-])c1 and answer again.
0.0

Next entry: O=C(Oc1ccc(OC(=O)c2cc(B(O)O)cc([N+](=O)[O-])c2)c(Cl)c1)c1cc(B(O)O)cc([N+](=O)[O-])c1
1.0

----------
biological target: SARS-associated coronavirus protease 3CL^pro (Severe acute respiratory syndrome coronavirus, UniProt P0C6U8); experiment: biochemical
pKi: −log10 of the molar value.
The label depends only on pKi: Met if it is at least 4, Not met if it is smaller.

>>> print(df.to_string())
                                   compound  qualitative_label
0  O=C(Oc1cc(=O)oc2ccccc12)c1cc(B(O)O)cc([N+](=O)[O-])c1            Not met
1       O=C(Oc1cccc(B(O)O)c1)c1c(Cl)cccc1Cl            Not met
2  O=C(OCc1cccc(B(O)O)c1)c1cc(B(O)O)cc([N+](=O)[O-])c1                Met
3  O=C(Oc1c(Cl)c(Cl)c(OC(=O)c2cc(B(O)O)cc([N+](=O)[O-])c2)c(Cl)c1Cl)c1cc(B(O)O)cc([N+](=O)[O-])c1                Met
4  O=C(Oc1cccc(B(O)O)c1)c1ccc(C(=O)Oc2cccc(B(O)O)c2)cc1                Met

Hi team, for O=C(Oc1cccc(OC(=O)c2cc(B(O)O)cc([N+](=O)[O-])c2)c1)c1cc(B(O)O)cc([N+](=O)[O-])c1 , is the recorded pKi at or above 4?
Met

Consider next the compound O=C(OCc1cccc([N+](=O)[O-])c1)c1cc(B(O)O)cc([N+](=O)[O-])c1 in the same way.
Met

Also check O=C(OC1c2ccccc2CC1Br)c1cc(B(O)O)cc([N+](=O)[O-])c1 (centres unmarked)
Not met

Also need O=C(OC(C(=O)c1ccccc1)c1ccccc1)c1cc(B(O)O)cc([N+](=O)[O-])c1 (centres unmarked) , thanks.
Not met
